Assay explanation: NCI Yeast Anticancer Drug Screen. Data for the sgs1 mgt1 strain (AID 161);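 also: 0% = growth of cultures given vehicle only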
Measurement parameters: S. cerevisiae sgs1 mgt1 strain, at 50.0 µM, active compounds read high
Compounds without any hit were thinned out: in the full panel of roughly 79,000, 15% have a hit.
Observation type: growth inhibition (%)
Quick note: give the figure in %, leave out the unit.

Please look up its growth inhibition: CN1C(=O)C2C=CC1c1ccccc12 (stereo not drawn)
-8.8

Repeat for the following compound: COC(=O)C1C2C=CC(CC2)C1C(=O)OC (stereo not drawn)
-0.3

Would you mind doing "Cc1cc(O[Si](C)(C)C)nc(O[Si](C)(C)C)n1" as well?
0.15

Now this one: "CC(=Nc1cccc2ccccc12)c1c(O)cc(C)oc1=O"
15.2

Lookup CC(=O)c1cc2c(cc1C(C)C)C(C)(C)C(C)CC2(C)C (stereo not drawn)
13.8

Now give it for "COc1ccc2c(c1)Cc1cc(N=[N+]([O-])c3ccc4c(c3)Cc3cc(OC)ccc3-4)ccc1-2" too.
-17.9

Now give it for "CC(=O)NNc1nc(C)c(C(/C=C/c2cccc([N+](=O)[O-])c2)=N/NC(=S)NN)s1" too.
2.2

Also, "CCCCc1c(O)c2c(=O)[nH]c(C)nc2oc1=O" please.
-9.65

And "Cc1ccc(S(=O)(=O)Nc2ccccc2-c2nc3c(Cl)ccc(Cl)c3c(=O)o2)cc1" ?
41.5

Input "O=C1NC(=O)c2ccc(S)c3cccc1c23"
-2.35

Consider next the compound "O=[P+](O)c1cc2c3ccccc3ccc2c2ccccc12" in the same way.
32

For "O=C(O)c1[nH]c(=O)[nH]c(=O)c1C(=O)O" then?
-15.1

Next up: "N#CCc1c(F)c(F)c(F)c(F)c1F"
14.4

Another compound to look at: "CN(C)c1ccc(/C=C2\Cc3ccccc3C2=O)cc1Br"
1.45

Now try "Brc1cccc(CCOCc2ccccc2)c1" .
-4.3

What do you get for COc1ccc(C23OC2Oc2cc(OC4CCCCO4)ccc2C3=O)cc1 (stereo not drawn) ?
-6.25

And O=C1C2C3C=C4c5ccccc5N(c5ccccc5)C4(C2C(=O)N1c1ccc([N+](=O)[O-])cc1)[C@H]1C(=O)N(c2ccc([N+](=O)[O-])cc2)C(=O)[C@@H]31 (stereo partly drawn) ?
21.9

Same question, "CC(C)COC(=O)c1cc(O)[nH]c(=O)c1" this time
1.75

Same thing, different compound: "Cc1cc2nc(-c3ccccc3O)[nH]c2cc1C"
-5.25

Please answer likewise for "Nc1nc(-c2ccccc2)cc(-c2cc(Cl)ccc2O)n1"
-3.1

"COc1ccc(C(CC(=O)O)CC(=O)O)cc1[N+](=O)[O-]" ?
-2.1

Param item: "COc1cc2c(c(OC)c1OC)-c1ccc(S(C)(=O)=O)c(=O)cc1[C@@H](NC(C)=O)CC2"
3.2

Next record, please: "N#Cc1nc(/C=C/c2nc(C#N)c(N)o2)oc1N"
-5.25

----------
Consider the following compounds; for each one, report its growth inhibition.
Assay explanation: NCI Yeast Anticancer Drug Screen. Data for the bub3 strain (AID 167)
Measurement parameters: S. cerevisiae bub3 mutant strain, at 50.0 µM, active compounds read high
Compounds without any hit were thinned out: in the full panel of roughly 79,000, 15% have a hit.
Write it as a number; the unit % goes unstated.

Which growth inhibition is reported for this compound? "COC1=C(OC)CCC(/C(C#N)=C/c2ccc(OC)c(OC)c2)=C1"
-0.9

Query "Cc1cc(=O)c2cc([N+](=O)[O-])ccc2[nH]1" next
5.85

Now give it for "Cc1cc(C)c(S(=O)(=O)ONC(=O)OC(C)(C)C)c(C)c1" too.
11.2

What would you report for "Clc1nc(N2CCCCC2)c2[nH]cnc2n1" ?
-1.6

Also need COc1ccc2c(c1)CC1(CC2)NCC(=O)NC1=O (stereo unspecified) , thanks.
5.8

What do we get for "O=C(O)/C=C/c1ccncc1" ?
-0.3

What do you have for "O=c1cc(O)cc(CO)o1" ?
-21.2

Likewise for CCCCC(CC)C1OCCS1 (stereo unspecified) ?
-17

// query: COCCNC(=O)C(C)O (stereo unspecified)
17.1

Now consider "NC(=O)CCBr" and answer again.
1.3

How about this compound: "CCOC(=O)/C(C#N)=C/C=C1C=CN(C)C=C1"
0.1

Moving on to the next compound: COC(=O)C1=C(C(=O)OC)C2(C3C(SC)=CC(C)(C)CC3S1)N(Cc1ccccc1)CCN2Cc1ccccc1 (stereo unspecified)
-8.7

Another: CC/C=C\C/C=C\C/C=C\CCCCCCCC(=O)OC(COC(=O)CCCCCCCCCCCCCCCCC)COC1OC(CO)C(O)C(O)C1O (stereo unspecified)
32.2

Then "CCOC(=O)c1ccc(C#N)cc1" ?
-15.7

Likewise for "NS(=O)(=O)c1cc2c(cc1Cl)NC(C(=O)NNC(=O)c1ccncc1)=NS2(=O)=O" ?
-11.9

Please do the same for CC(=O)OCC1OC(n2ccc(NC(=O)Nc3ccn(C4OC(COC(C)=O)C(OC(C)=O)C4OC(C)=O)c(=O)n3)nc2=O)C(OC(C)=O)C1OC(C)=O (stereo unspecified) as well.
-2.25

Moving on to CCCCCCCCCCCCCCCCCC(C)O (stereo unspecified)
-10.4

Same for "Cc1ccc(OC/C=C/c2ccc([N+](=O)[O-])cc2)cc1"
-4.55

Similarly, "O=C(NC(=O)c1c(F)cccc1F)Nc1cccc(C(F)(F)F)c1" ?
-3.3

Again, but for "COc1ccccc1CNCc1nc2ccccc2[nH]1"
0.55

Quick one: "COc1cc2c[n+]3c4c(cccc4c2cc1OC)CC3"
3.2

Cool, now CC1CC[C@@]23CCC4(C)[C@@](C=CC5[C@@]6(C)CCC(=O)C(C)(C)C6CC[C@]54C)(OC2=O)[C@@H]3[C@H]1C (stereo partly specified)
-14.5

Do the same for COc1ccc2c(c1)CCC1=C2CC2C(=O)C1(C)CCC2(C)OC(C)=O (stereo unspecified) please
10.1

Entry O=[N+]([O-])C1C2C=CC(C2)[C@H]1c1ccco1 (stereo partly specified) please
-14.8

Next up: "Cc1cc(C)c(CC#N)s1"
-15.4

Check COc1cc(C2c3cc4c(cc3OC3(OC)COC(=O)C23)OCO4)cc(OC)c1OC (stereo unspecified) too.
-21.1

Similarly, "CC(C)(C)c1ccc(-c2cc3nc(-c4ccccc4)cc(=O)n3[nH]2)cc1" ?
10.8

Would you mind doing "Cc1ccc(NC(=S)N(C)C)cc1" as well?
22.4

Same thing, different compound: "O=C1c2ccccc2C(=O)N1CCNc1ccccc1[N+](=O)[O-]"
6.5

Then what about the compound "CC=C/C=C/[C@@H]1O[C@](O)([C@H](CC)C(=O)NC/C=C/C=C(\C)[C@@H](OC)[C@@H](C)[C@@H]2O[C@H](/C=C/C=C/C=C(\C)C(=O)c3c(O)cc[nH]c3=O)[C@H](O)[C@@H]2O)[C@H](O)[C@H](O)C1(C)C" ?
29.9

Similarly, "O=C1c2ccccc2-c2ccc3c4ccc5c6c(ccc(c7ccc1c2c73)c64)-c1ccccc1C5=O" ?
5.75

What do you get for "Cc1cccc(C)c1NC(=O)CCC/C(CC(=O)c1ccc(F)cc1)=N\NC(=O)C(=O)NN" ?
-4.9

Also check "O=C(O)/C=C\c1cc2c(cc1[N+](=O)[O-])OCO2"
14.6

Next compound: "COC(=O)c1nc(N)nc(C(=O)OC)c1C(=O)C(C)C"
-29

Param item: CC(CC(=O)O)C1(C)C2CCCCC2C2CCCCC21 (stereo unspecified)
-4.15

Consider next the compound "CC(=O)N(C(C)=O)c1ccccc1/C=C1\CCOC1=O" in the same way.
11.6

Now give it for "Cc1ccc(S(=O)(=O)Oc2c(Br)cc(-c3ccccc3)cc2Br)cc1" too.
-12.4

Also "Cc1cc(NC(=O)C(=O)Cc2cnc3ccccc3n2)c(S(=O)(=O)O)cc1Cl" ?
-11.2

Another compound to check: NC(=O)C(Cc1ccccc1Cl)c1ccccc1 (stereo unspecified)
-8.35

What about this compound? "Clc1ccc(/C=C/c2nc3ccccc3s2)cc1Cl"
27.2

Item: "Nc1c(Cl)ncnc1Nc1ccc(O)cc1"
24.8

Next: CCOC(=O)C1CC(C)c2[nH]c3ccccc3c21 (stereo unspecified)
-12

For "Cc1ccc(SCCCN(C)C)cc1" then?
14.2

// repeat for CCOC(C)(C(=O)O)c1cccc2ccccc12 (stereo unspecified) and report
-8.8

Try "C=CCNC(=S)/N=C/C(C(=O)Nc1ccccc1OC)=C(\C)O" next.
-34.5

Please give the result for CC(CN(C)C)Oc1ccc2c(c1)C(=O)C(C)C2 (stereo unspecified) too.
22.1
